target: human IRAK4 (Homo sapiens (Human)); experiment: IRAK4 kinase inhibition, Transcreener fluorescence polarization ADP assay; settings: recombinant full-length His6-IRAK4; 125 uM ATP; 90 min; Ki computed using ATP Km 642 uM
Let's look at some compounds and their measured Ki.
assay.endpoint: Ki (nM)

                                   compound  assay_endpoint  reading_unit  measured_value
0  C[C@]1(CC(F)F)Cc2cc(NC(=O)c3cnn4cccnc34)c(N3CCOCC3)cc2O1              Ki            nM             5.8
1  O=C(Nc1cc2c(cc1N1CCOCC1)C(=O)N(CC1CCOC1)C2)c1cnn2cccnc12 (single isomer, unassigned)              Ki            nM             3.8
2  C[C@@]1(O)COc2cc(N3CCC(n4ccnc4)CC3)c(NC(=O)c3cnn4cccnc34)cc2C1              Ki            nM              12
3  O=C(Nc1cc2c(cc1N1CCOCC1)C(=O)N(C[C@H]1CCOC1)C2)c1cnn2cccnc12              Ki            nM             4.5
4  CC(C)(O)[C@H](F)CN1Cc2cc(NC(=O)c3cnn4cccnc34)c(N3CCOCC3)cc2S1(=O)=O              Ki            nM               8
5  Cc1c2c(cc(NC(=O)c3cnn4cccnc34)c1N1CCOCC1)C[C@@](C)(CO)O2              Ki            nM              24
6  C[C@]1(CO)Cc2cc(NC(=O)c3cnn4cc(Cl)cnc34)c(N3CCC(CO)CC3)cc2O1              Ki            nM             3.9

====

Biological target: human IRAK4 (Homo sapiens (Human), UniProt Q9NWZ3)
Sequence (Q9NWZ3 whole entry): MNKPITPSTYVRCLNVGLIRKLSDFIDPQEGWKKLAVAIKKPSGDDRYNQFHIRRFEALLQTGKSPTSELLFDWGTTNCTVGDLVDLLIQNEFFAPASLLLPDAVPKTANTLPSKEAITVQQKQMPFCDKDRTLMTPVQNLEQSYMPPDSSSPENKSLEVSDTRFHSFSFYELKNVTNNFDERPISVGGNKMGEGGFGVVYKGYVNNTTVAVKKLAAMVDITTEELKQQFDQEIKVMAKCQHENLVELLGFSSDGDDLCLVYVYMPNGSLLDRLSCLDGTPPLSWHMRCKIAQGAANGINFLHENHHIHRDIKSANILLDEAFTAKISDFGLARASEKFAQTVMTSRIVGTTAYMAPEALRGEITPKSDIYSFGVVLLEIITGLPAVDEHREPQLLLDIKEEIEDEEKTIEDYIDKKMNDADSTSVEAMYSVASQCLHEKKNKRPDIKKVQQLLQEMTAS
Assay: IRAK4 kinase inhibition, Transcreener fluorescence polarization ADP assay
Conditions: recombinant full-length His6-IRAK4; 125 uM ATP; 90 min; Ki computed using ATP Km 642 uM
Protocol: Compounds were assayed for inhibition of human IRAK4 and IRAK1 catalytic activity using recombinant enzyme produced from insect cells. Full-length IRAK4 protein, carrying an N-terminal His6-Tag, was obtained from Life Technologies (Carlsbad, Calif., USA). The IRAK1 construct was produced internally and was comprised of IRAK1 residues Arg194 to Ser712, preceded by an NH2-terminal His6 tag and the coding sequence for glutathione-S-transferase.
Please note: Ki exactly at 10 nM is false (0). Only values below 10 nM get true (1).

>>> df
                                    molecule                            assayed_target  label_class
 0  CC1(C)Cc2cc(NC(=O)c3cnn4ccc(C[C@@H]5CCNC5=O)nc34)c(C3CC3)cc2O1  human IRAK4 (Homo sapiens (Human), UniProt Q9NWZ3)    false (0)
 1  CN1CCC(N2Cc3cc(NC(=O)c4cnn5cccnc45)c(N4CCN(CC(N)=O)CC4)cc3C2=O)CC1  human IRAK4 (Homo sapiens (Human), UniProt Q9NWZ3)     true (1)
 2  CC1(C)Cc2cc(NC(=O)c3cnn4cccnc34)c(N3CCC4(CC3)CN(CC(F)(F)F)C4)cc2O1  human IRAK4 (Homo sapiens (Human), UniProt Q9NWZ3)    false (0)
 3  CC1(C)CNc2cc(NC(=O)c3cnn4cccnc34)c(N3CCOCC3)cc2O1  human IRAK4 (Homo sapiens (Human), UniProt Q9NWZ3)    false (0)
 4  CC1(C)Cc2cc(NC(=O)c3cnn4cccnc34)c(N3CCC4(COC4)C3)cc2O1  human IRAK4 (Homo sapiens (Human), UniProt Q9NWZ3)    false (0)
 5  C[C@@]1(C2CC2)Cc2cc(NC(=O)c3cnn4cccnc34)c(N3CCC(F)(CO)CC3)cc2O1  human IRAK4 (Homo sapiens (Human), UniProt Q9NWZ3)     true (1)
 6  O=C(Nc1cc2c(cc1N1CCOCC1)O[C@](CO)(C(F)(F)F)C2)c1cnn2cccnc12  human IRAK4 (Homo sapiens (Human), UniProt Q9NWZ3)    false (0)
 7  O=C(Nc1cc2c(cc1N1CCOCC1)C(=O)N(CC(F)F)C2)c1cnn2cccnc12  human IRAK4 (Homo sapiens (Human), UniProt Q9NWZ3)    false (0)
 8  C[C@@H](O)CN1CCN(c2cc3c(cc2NC(=O)c2cnn4cccnc24)CC(C)(C)O3)CC1  human IRAK4 (Homo sapiens (Human), UniProt Q9NWZ3)     true (1)
 9  C[C@@]1(CO)Cc2cc(NC(=O)c3cnn4cccnc34)c(N3CCC(C4(O)CC4)CC3)cc2O1  human IRAK4 (Homo sapiens (Human), UniProt Q9NWZ3)     true (1)
10  CC1(C)Cc2cc(NC(=O)c3cnn4cccnc34)c(N3CCC4(CC3)CNC(=O)C4)cc2O1  human IRAK4 (Homo sapiens (Human), UniProt Q9NWZ3)     true (1)
11  CC1(C)Cc2cc(NC(=O)c3cnn4ccc(C[C@H]5CCNC5=O)nc34)c(C3CC3)cc2O1  human IRAK4 (Homo sapiens (Human), UniProt Q9NWZ3)    false (0)
12  CC1(C)Cc2cc(NC(=O)c3cnn4cccnc34)c(N3CCN4CCC[C@H]4C3)cc2O1  human IRAK4 (Homo sapiens (Human), UniProt Q9NWZ3)    false (0)
13  C[C@@]1(CO)Cc2cc(NC(=O)c3cnn4cccnc34)c(N3CC[C@H](F)C3)cc2O1  human IRAK4 (Homo sapiens (Human), UniProt Q9NWZ3)    false (0)
14  CC1COc2cc(N3CCOCC3)c(NC(=O)c3cnn4cccnc34)cc2N1 (stereo not shown)  human IRAK4 (Homo sapiens (Human), UniProt Q9NWZ3)    false (0)
15  CNc1cnc2c(C(=O)Nc3cc4c(cc3N3CCN(CC(F)F)CC3)OC(C)(C)C4)cnn2c1  human IRAK4 (Homo sapiens (Human), UniProt Q9NWZ3)     true (1)
16  CC1(C)Cc2cc(NC(=O)c3cnn4cccnc34)c(N3CCCC(c4ccn[nH]4)C3)cc2O1 (stereo not shown)  human IRAK4 (Homo sapiens (Human), UniProt Q9NWZ3)    false (0)
17  C[C@@]1(CO)Cc2cc(NC(=O)c3cnn4cccnc34)c(N3CCC(F)(F)C3)cc2O1  human IRAK4 (Homo sapiens (Human), UniProt Q9NWZ3)     true (1)
18  CN(C)c1cc2c(cc1NC(=O)c1cnn3cccnc13)CC(C)(C)O2  human IRAK4 (Homo sapiens (Human), UniProt Q9NWZ3)    false (0)
19  CC1(C)Cc2cc(NC(=O)c3cnn4cccnc34)c(N3CCC4(CC3)COC4)cc2O1  human IRAK4 (Homo sapiens (Human), UniProt Q9NWZ3)    false (0)
20  CN1CC2(Cc3cc(NC(=O)c4cnn5cccnc45)c(N4CCOCC4)cc3O2)C1  human IRAK4 (Homo sapiens (Human), UniProt Q9NWZ3)    false (0)
21  C[C@@]1(CO)Cc2cc(NC(=O)c3cnn4cccnc34)c(N3CCC(C#N)CC3)cc2O1  human IRAK4 (Homo sapiens (Human), UniProt Q9NWZ3)     true (1)

====

biological target: human IRAK4 (Homo sapiens (Human), UniProt Q9NWZ3); test: IRAK4 kinase inhibition, Transcreener fluorescence polarization ADP assay; details: recombinant full-length His6-IRAK4; 125 uM ATP; 90 min; Ki computed using ATP Km 642 uM
Could you please classify the records by Ki using these ranges: band A: < 4 nM; band B: ≥ 4 nM and < 40 nM; band C: ≥ 40 nM

                                    compound  label_class
 0  O=C(Nc1cc2c(cc1N1CCC(F)(CO)CC1)O[C@](CO)(C(F)(F)F)C2)c1cnn2cccnc12 (single isomer, unassigned)       band B
 1  CC1(C)Cc2cc(NC(=O)c3cnn4cccnc34)c(N3CCN(CC4CCC4)CC3)cc2O1       band C
 2  C[C@]1(CO)Cc2cc(NC(=O)c3cnn4cc(Cl)cnc34)c(N3CCN(CC(F)F)CC3)cc2O1       band A
 3  CC1(C)Cc2cc(NC(=O)c3cnn4cccnc34)c(N3CC[C@](C)(CO)C3)cc2O1       band B
 4  O=C(Nc1cc2c(cc1N1CCOCC1)C(=O)N(CC(F)(F)CO)C2)c1cnn2cccnc12       band B
 5  CC1(CO)CCc2cc(NC(=O)c3cnn4cccnc34)c(N3CCOCC3)cc2O1 (centres unmarked)       band B
 6  C[C@H](O)CN1CCN(c2cc3c(cc2NC(=O)c2cnn4cccnc24)CC(C)(C)O3)CC1       band B
 7  Cc1cnc2c(C(=O)Nc3cc4c(cc3N3CCC(CO)CC3)OC(C)(CO)C4)cnn2c1 (centres unmarked)       band A
 8  CC(C)(O)CN1Cc2cc(NC(=O)c3cnn4cccnc34)c(N3CCOCC3)cc2S1(=O)=O       band C
 9  CC1(C)Cc2cc(NC(=O)c3cnn4cccnc34)c(N3CCN(Cc4cnoc4)CC3)cc2O1       band A
10  CC(C)N1Cc2cc(NC(=O)c3cnn4cc(C#N)cnc34)c(N3CCOCC3)cc2C1=O       band C
11  CC1(C(F)F)Cc2cc(NC(=O)c3cnn4cccnc34)c(N3CCN(CC(F)F)CC3)cc2O1 (centres unmarked)       band A
12  C[C@]1(O)COc2cc(N3CCOCC3)c(NC(=O)c3cnn4cccnc34)cc2C1 (single isomer, unassigned)       band C
13  CNc1cnc2c(C(=O)Nc3cc4c(cc3N3CCOCC3)C(=O)N(C(C)C)C4)cnn2c1       band B
